- target.entity: T1, c-mpl receptor (Homo sapiens (Human), UniProt P40238 26-491, The MPL used for panning was biotinylated; the biotin site is not stated and is not carried by the letters.)
- T1 construct: also called TPO receptor
- T1 sequence: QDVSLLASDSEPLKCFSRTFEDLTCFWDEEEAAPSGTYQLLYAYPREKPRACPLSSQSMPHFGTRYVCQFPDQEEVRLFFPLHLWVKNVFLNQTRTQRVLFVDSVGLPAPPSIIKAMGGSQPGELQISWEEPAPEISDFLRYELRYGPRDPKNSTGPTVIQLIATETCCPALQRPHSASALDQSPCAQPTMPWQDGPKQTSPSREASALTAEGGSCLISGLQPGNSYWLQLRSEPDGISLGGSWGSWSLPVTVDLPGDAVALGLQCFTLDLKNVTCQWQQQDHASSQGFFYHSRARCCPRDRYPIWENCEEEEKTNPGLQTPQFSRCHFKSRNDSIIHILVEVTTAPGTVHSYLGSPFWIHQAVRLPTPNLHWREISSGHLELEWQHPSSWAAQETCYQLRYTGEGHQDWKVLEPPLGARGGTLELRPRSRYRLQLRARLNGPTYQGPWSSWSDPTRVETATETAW
- measurement.description: phage-ELISA
Attribute: Relative activity
The answer should be written as a number, with no unit following it.

Illustrative cases are given below, each with its answer.
| binder | Relative activity |
| --- | --- |
| IEGPTFKQWQVRQKTHS [SEQ ID NO: 276] | 105 |
| IEGEALVFWWAARA [SEQ ID NO: 307] | 40.3 |
| IEGWWWQFYVHAKGDHS [SEQ ID NO: 270] | 109 |

Could you share which Relative activity value was measured for IEGFVGTVDWRQGRPHS [SEQ ID NO: 303] ?
49.8

// lookup Relative activity for IEGPTFEQWQHWRRGHS [SEQ ID NO: 285]
91.5

Which measured Relative activity value corresponds to IEGPTFKQWQGRSKRHS [SEQ ID NO: 258] ?
131

Please give the measured Relative activity for this binder: IEGPTLHEWLRWLRQHS [SEQ ID NO: 291]
78.3
